# tested.target: human LPAR1 (Homo sapiens)
# Construct: expressed in transfected cells
# Sequence (Q92633 whole entry): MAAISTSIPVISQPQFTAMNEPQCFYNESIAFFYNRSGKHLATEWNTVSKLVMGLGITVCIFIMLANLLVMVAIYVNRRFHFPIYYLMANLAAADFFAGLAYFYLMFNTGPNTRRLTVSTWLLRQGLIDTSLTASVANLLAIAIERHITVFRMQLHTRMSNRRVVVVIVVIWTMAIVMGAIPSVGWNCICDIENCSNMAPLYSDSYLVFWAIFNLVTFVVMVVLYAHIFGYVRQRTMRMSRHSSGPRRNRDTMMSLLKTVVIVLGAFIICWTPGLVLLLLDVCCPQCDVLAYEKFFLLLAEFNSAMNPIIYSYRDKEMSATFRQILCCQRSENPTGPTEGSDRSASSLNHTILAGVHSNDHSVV
# experimental.details: Test Example 1: antagonism against response of LPA-induced increase in intracellular Ca2+ concentration in RH7777 cells stably expressing human LPAR1
# Format: cell-based
# conditions.used: RH7777 cells stably expressing human LPAR1; Fluo-4 fluorescence, FDSS6000; read-out: IC50 value (concentration producing 50% antagonism against response of LPA-induced increase in intracellular Ca2+ concentration) (converted)
observed.property: IC50 (nM)

Look over these answered cases.
* CCOc1cc([C@@H](C)N(CCCCc2ccccc2)C(=O)NC2(C(=O)O)CCOCC2)cc(OCC)c1C(C)O (stereo partly shown) [Example 1-152] | 5.17
* CCOc1cc(C(C)N(CCCCc2ccccc2)C(=O)NC2(C(=O)O)Cc3ccccc3C2)cc(OCC)c1C (stereo not shown) [Example 1-122] | 12.7
* CCOc1cc(C(C)N(CCCCc2ccccc2)C(=O)NC2(c3nn[nH]n3)CC2)cc(OCC)c1C(C)=O (stereo not shown) [Example 10-3] | 1.9
* CCOc1c(C2CC2)ccc([C@@H](C)N(CCO[C@H](C)c2cccc(Cl)c2)C(=O)NC2(C(=O)O)CC(F)(F)C2)c1C [Example 4-181] | 3.27
* CCOc1cc([C@@H](C)N(CC/C=C(\C)c2ccccc2)C(=O)NC2(C(=O)O)CC(F)(F)C2)cc(OCC)c1C [Example 4-41] | 4.16

(I) CCOc1cc(C(C)N(CCOCc2ccccc2)C(=O)NC2(C(=O)O)CC(OCC)C2)c(Cl)c(OCC)c1C1CC1 (stereo not shown) [Example 5-213]
(II) COc1cc([C@@H](C)N(CCOCc2ccccc2)C(=O)NC2(C(=O)O)CC(OC)C2)cc(OC)c1C(C)=O (stereo partly shown) [Example 5-121]
Field: entry with larger IC50 (options I / II ). Please respond with the label that marks your chosen entry. II
(II: 12.1 nM, I: 0.847 nM)
